Sequence of the target: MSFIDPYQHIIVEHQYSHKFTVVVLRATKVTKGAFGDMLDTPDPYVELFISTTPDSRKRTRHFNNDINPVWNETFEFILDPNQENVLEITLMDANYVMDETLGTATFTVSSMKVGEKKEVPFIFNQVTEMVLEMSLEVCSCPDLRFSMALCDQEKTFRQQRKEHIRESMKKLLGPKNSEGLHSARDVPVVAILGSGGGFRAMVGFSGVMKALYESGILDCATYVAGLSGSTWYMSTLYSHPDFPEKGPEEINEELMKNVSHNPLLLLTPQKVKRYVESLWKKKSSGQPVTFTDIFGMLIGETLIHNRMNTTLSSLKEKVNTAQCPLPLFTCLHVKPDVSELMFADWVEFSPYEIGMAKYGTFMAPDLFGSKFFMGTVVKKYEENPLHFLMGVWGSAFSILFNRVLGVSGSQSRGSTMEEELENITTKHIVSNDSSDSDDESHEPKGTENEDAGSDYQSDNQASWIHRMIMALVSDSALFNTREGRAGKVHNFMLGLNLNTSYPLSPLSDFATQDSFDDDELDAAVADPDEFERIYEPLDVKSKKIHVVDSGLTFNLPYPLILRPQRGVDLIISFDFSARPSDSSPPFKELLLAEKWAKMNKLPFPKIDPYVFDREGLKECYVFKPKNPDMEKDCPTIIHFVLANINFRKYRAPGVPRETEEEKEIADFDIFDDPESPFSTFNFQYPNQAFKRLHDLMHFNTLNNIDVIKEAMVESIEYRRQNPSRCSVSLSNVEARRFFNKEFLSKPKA
Experimental readout: pIC50
Give bare numbers, as −log10 of the molar value.

Cc1cccc(C)c1CS(=O)(=O)NCCc1c(CCS(=O)(=O)c2ccc(C(=O)O)cc2)c2cc(Cl)ccc2n1C(c1ccccc1)c1ccccc1 [Example 141] | 6.77
CS(=O)(=O)c1ccc(CS(=O)(=O)NCCc2c(CCOc3ccc(C(=O)O)cc3)c3cc(Cl)ccc3n2C(c2ccccc2)c2ccccc2)cc1 [Example 40] | 6.14
Cc1cccc(C)c1CS(=O)(=O)NCCc1c(CCCc2ccc(C(=O)O)cc2)c2cc(Cl)ccc2n1C(c1ccccc1)c1ccccc1 [Example 52] | 6.89
O=C(O)c1ccc(CCCc2c(CCNS(=O)(=O)Cc3cc(Cl)ccc3Cl)n(C(c3ccccc3)c3ccccc3)c3ccc(Cl)cc23)cc1 [Example 67] | 6.85
O=C(O)c1ccc(OCCc2c(CCNS(=O)(=O)CCN3CCCCC3)n(C(c3ccccc3)c3ccccc3)c3ccc(Cl)cc23)cc1 [Example 117] | 5.80

Provide each entry's pIC50 from the list below.
1. O=C(O)c1ccc(OCCc2c(CCNS(=O)(=O)Cc3ccc(Cl)cc3[N+](=O)[O-])n(C(c3ccccc3)c3ccccc3)c3ccc(Cl)cc23)cc1 [Example 32]
2. O=C(O)c1ccc(OCCc2c(CCNS(=O)(=O)Cc3ccccc3[N+](=O)[O-])n(C(c3ccccc3)c3ccccc3)c3ccc(Cl)cc23)cc1 [Example 9]

1: 7.07; 2: 6.15

Provide each entry's pIC50 from the list below.
1. O=C(O)c1ccc(CCCc2c(CCNS(=O)(=O)Cc3cccc(C(F)(F)F)c3)n(C(c3ccccc3)c3ccccc3)c3ccc(Cl)cc23)cc1 [Example 59]
2. Cc1cc(C)n(CCS(=O)(=O)NCCc2c(CCCc3ccc(C(=O)O)cc3)c3cc(Cl)ccc3n2C(c2ccccc2)c2ccccc2)n1 [Example 102]
3. O=C(O)c1ccc(OCCc2c(CCNS(=O)(=O)c3ccccc3C(=O)O)n(C(c3ccccc3)c3ccccc3)c3ccc(Cl)cc23)cc1 [Example 25]
4. O=C(O)c1ccc(CCCc2c(CCNS(=O)(=O)Cc3c(F)cccc3F)n(C(c3ccccc3)c3ccccc3)c3ccc(Cl)cc23)cc1 [Example 126]

1. 6.54
2. 6.72
3. 5.47
4. 6.70
